- assay_text: Single oral dose pharmacokinetic (PK) study in dogs, fasted and fed
- Assay type: in vivo
- recorded_conditions: both sexes, dog, in vivo, po, 15 mg/kg, 15 mg/kg oral suspension, fasted, day 1, mean, read-out: AUClast, Day 1 (Fasted)
measurement_name: AUC(0-t) (µg·h/mL)

- compound: "C=CC(=O)Nc1cc(C)ccc1Nc1nc(Nc2cc(OC)ncc2C)ncc1C(F)(F)F.O=P(O)(O)O [Compound 2, Form A]"
  reported_measurement: 1.08

(a) C=CC(=O)Nc1cc(C)ccc1Nc1nc(Nc2cc(OC)ncc2C)ncc1C(F)(F)F.Cl [Compound 4, Form A]
(b) Br.C=CC(=O)Nc1cc(C)ccc1Nc1nc(Nc2cc(OC)ncc2C)ncc1C(F)(F)F [Compound 5, Form A]
Select one: a or b . Criterion: greater recorded AUC(0-t). Reply with the label of the item you choose.
b
(b: 1.68 µg·h/mL, a: 0.856 µg·h/mL)
